ASSAYED TARGET: T1, cynomolgus Tim-3 expressed on CHO cells (cynomolgus monkey)
T1 construct: also called cTim-3; Cyno Tim-3 (CHO)
T1 chain: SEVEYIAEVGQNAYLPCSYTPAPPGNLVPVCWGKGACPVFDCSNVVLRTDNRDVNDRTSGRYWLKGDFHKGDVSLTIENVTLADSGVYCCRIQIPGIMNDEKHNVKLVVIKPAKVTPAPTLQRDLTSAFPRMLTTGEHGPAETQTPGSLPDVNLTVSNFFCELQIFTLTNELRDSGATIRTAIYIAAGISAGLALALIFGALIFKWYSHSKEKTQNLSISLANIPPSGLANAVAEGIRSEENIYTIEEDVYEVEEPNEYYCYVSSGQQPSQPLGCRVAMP
TEST NAME: flow cytometry, CHO-cyno Tim-3 cells
Answer each item with its documented Kd.
Reply numerically in nM, unit not repeated.

Find the measured Kd of h22E11-VK2-28 × h22E11-5-IgG-HC (antibody, V domains shown, Humanized m22E11) VH: EVQLVESGGGLVQPGGSLRLSCAVSGFSLTSYGVHWVRQAPGKGLEWLVVIWSDGSTTYNSALKSRFTISKDNAKNSVYLQMNSLRAEDTAVYYCARQGGYRYDDAMDYWGQGTLVTVSS VL: DIVLTQSPLSLPVTPGEPASISCKASQSVDYDGNSYVNWYLQKPGQSPQLLIYAASNLESGVPDRFSGSGSGTDFTLKISRVEAEDVGVYYCQQSNEDPYTFGQGTKVEIK and report it.
4.1

Find the measured Kd of h22E11-VK3-11 × h22E11-5-IgG-HC (antibody, V domains shown, Humanized m22E11) VH: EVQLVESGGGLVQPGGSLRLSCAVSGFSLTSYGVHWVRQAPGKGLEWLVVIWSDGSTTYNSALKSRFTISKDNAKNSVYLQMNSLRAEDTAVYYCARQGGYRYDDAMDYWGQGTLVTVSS VL: EIVLTQSPATLSLSPGERATLSCKASQSVDYDGNSYVNWYQQKPGQAPRLLIYAASNLESGIPARFSGSGSGTDFTLTISSLEPEDFAVYYCQQSNEDPYTFGQGTKVEIK and report it.
5.3

Find the measured Kd of h22E11-VK4-1 × h22E11-5-IgG-HC (antibody, V domains shown, Humanized m22E11) VH: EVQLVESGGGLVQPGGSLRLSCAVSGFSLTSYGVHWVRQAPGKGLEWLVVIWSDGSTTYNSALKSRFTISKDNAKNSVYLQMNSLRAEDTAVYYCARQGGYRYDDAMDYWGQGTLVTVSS VL: DIVLTQSPDSLAVSLGERATINCKASQSVDYDGNSYVNWYQQKPGQPPKLLIYAASNLESGVPDRFSGSGSGTDFTLTISSLQAEDVAVYYCQQSNEDPYTFGQGTKVEIK and report it.
5.3

Find the measured Kd of h22E11-VK1-39 × h22E11-5-IgG-HC (antibody, V domains shown, Humanized m22E11) VH: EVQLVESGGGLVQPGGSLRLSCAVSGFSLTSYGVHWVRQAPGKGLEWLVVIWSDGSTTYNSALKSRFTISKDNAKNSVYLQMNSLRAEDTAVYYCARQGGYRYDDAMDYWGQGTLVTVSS VL: DIQLTQSPSSLSASVGDRVTITCKASQSVDYDGNSYVNWYQQKPGKAPKLLIYAASNLESGVPSRFSGSGSGTDFTLTISSLQPEDFATYYCQQSNEDPYTFGQGTKVEIK and report it.
4.7

Source listed as patent US20200190192A1.
